This collection of values is drawn from paper PMC11371640.

- target: T1, His6-SUMO-tagged SH3 to PDZ domains of Shank2 (R520-D727), S610Y ( (human or rat cDNA cloned), UniProt Q9UPX8-3 520-727, S610Y)
- T1 sequence: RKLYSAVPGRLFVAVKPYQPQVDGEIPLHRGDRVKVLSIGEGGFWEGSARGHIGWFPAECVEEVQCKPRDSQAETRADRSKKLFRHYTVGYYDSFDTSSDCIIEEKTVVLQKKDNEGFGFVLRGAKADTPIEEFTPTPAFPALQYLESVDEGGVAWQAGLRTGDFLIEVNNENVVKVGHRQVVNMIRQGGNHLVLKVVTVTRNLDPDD
- protocol-text: ITC
assay-metric: Kd (nM)
# output: bare number, implied unit nM

Query string: State, in one line, measured Kd of ADSIEIYIPEAQTRL (GKAP/SAPAP1, the last 15 amino acids (complete PDZ ligand), free N- and C-terminus; also called GKAP peptide; source: synthetic peptide (Genscript)) [synthetic peptide of the complete PDZ ligand of GKAP (last 15 amino acids of GKAP/SAPAP1)]
Result string: 910
